System: endometrium
Experiment: Dose inducing transformation of the endometrium (literature)
Format: in vivo
Settings: NEUMANN; reference progestative norgestrel (=1)
Source text: 2) Apart from the above, it would be reasonable to think that the doses claimed should be based on data from clinical pharmacology and/or clinical data previously published and commonly accepted. […]
Items are presented alongside their recorded Dose ratio, Endometrium (1).
Output spec: single numeric token, no unit.

For orientation, consider the following solved cases.
# MOLECULE, MEASURED PARAMETER, DATA VALUE
data = [
    ("C#C[C@]1(OC(C)=O)CC[C@H]2[C@@H]3CCC4=CC(=O)CC[C@@H]4[C@H]3CC[C@@]21C [Norethisterone acetate]", "Dose ratio, Endometrium (1)", 3.8),
    ("C#C[C@]1(O)CC[C@H]2[C@@H]3CCC4=CCCC[C@@H]4[C@H]3CC[C@@]21C", "Dose ratio, Endometrium (1)", 4.2),
    ("C#C[C@]1(O)CC[C@H]2[C@@H]3CCC4=C(CCC(=O)C4)[C@H]3CC[C@@]21C", "Dose ratio, Endometrium (1)", 8.3),
]

# next molecule below
**Query** Fill in: Dose ratio, Endometrium (1) of C#CC1(O)CC[C@H]2[C@@H]3CCC4=CC(=O)CC[C@@H]4[C@H]3CC[C@@]21CC (stereo partly shown) is ___
**Result** 1.0

Cited source for all entries: patent US8168619B1
